# study.target: EPHB1 (UniProt P54762)
# Sequence (P54762 whole entry, looked up): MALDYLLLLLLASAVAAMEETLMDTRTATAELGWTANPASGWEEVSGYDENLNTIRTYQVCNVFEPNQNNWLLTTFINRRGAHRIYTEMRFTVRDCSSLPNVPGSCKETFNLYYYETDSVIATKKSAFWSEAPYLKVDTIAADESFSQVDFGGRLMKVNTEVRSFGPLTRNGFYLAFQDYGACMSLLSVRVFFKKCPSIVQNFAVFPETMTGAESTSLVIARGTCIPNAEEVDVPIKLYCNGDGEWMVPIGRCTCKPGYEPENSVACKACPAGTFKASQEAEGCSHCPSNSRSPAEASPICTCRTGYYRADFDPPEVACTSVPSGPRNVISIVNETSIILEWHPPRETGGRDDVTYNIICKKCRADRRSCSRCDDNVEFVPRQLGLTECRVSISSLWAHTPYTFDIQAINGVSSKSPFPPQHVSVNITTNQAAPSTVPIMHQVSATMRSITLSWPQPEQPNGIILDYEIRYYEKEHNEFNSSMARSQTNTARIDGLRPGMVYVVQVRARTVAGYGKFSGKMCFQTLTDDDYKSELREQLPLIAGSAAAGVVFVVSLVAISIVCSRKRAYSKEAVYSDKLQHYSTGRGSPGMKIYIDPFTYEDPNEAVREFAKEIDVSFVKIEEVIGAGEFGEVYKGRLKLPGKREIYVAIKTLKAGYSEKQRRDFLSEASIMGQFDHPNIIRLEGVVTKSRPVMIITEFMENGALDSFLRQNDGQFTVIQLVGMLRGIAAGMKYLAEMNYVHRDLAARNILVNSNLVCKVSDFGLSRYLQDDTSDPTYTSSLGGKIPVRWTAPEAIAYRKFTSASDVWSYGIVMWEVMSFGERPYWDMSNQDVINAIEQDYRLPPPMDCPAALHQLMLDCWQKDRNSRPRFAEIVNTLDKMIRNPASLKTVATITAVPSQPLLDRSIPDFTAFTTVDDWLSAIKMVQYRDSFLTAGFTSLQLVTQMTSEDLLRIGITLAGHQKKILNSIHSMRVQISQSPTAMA
# experiment: phosphorylation enrichment, bacterial display (enrichment ratio); higher = better substrate or ligand; peptides without Tyr show the background;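 further: 11-residue human phosphosite peptides and single-mutation variants displayed on the E. coli surface, counted by deep sequencing, each peptide's frequency after selection divided by its frequency in the unselected input library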;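 further: frequency after pTyr selection over input frequency; kinase dosed for 20-30% of maximal phosphorylation in three min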
We begin with a simple list: items and their reported phosphorylation enrichment.
Answer with the value's number alone.

Worked examples follow.
INSERT INTO results (entry_sequence, measurement_kind, numeric_value) VALUES
  ('DRLASSLDKVR [KRT10_Y160_Y160S]', 'phosphorylation enrichment', 0.34),
  ('LDPDSYNVFEN [FOXC1_Y159_M161V]', 'phosphorylation enrichment', 0.728),
  ('AQADIYKANFQ [IKBKG_Y308_D311N]', 'phosphorylation enrichment', 0.361),
  ('VTGWGYRKLRD [F11_Y521]', 'phosphorylation enrichment', 0.364),
  ('FETVKYINNER [ABCB7_Y345_F346I_YF]', 'phosphorylation enrichment', 0.46);

# VNYGAYINDFK [GLB1_Y488] with EPHB1 (UniProt P54762): phosphorylation enrichment is 0.709

Entry LPEENYQVLCF [ARHGAP1_Y365_R369C] , EPHB1 (UniProt P54762) data, phosphorylation enrichment value: 9.13

Value sought: phosphorylation enrichment, system EPHB1 (UniProt P54762), item IHETTYKSIMK [ACTA1_Y281_N282K] . Result: 0.324

The value of phosphorylation enrichment recorded for QQLVAYYSKHA [SRC_Y232] when tested on EPHB1 (UniProt P54762) reads 0.765

Entry GTATTYLCGVK [ALPL_Y117_A116T] , EPHB1 (UniProt P54762) data, phosphorylation enrichment value: 0.5

EPHB1 (UniProt P54762) phosphorylation enrichment of VTQEQYELHCE [CBL_Y368_Y371H] is 0.708

EPHB1 (UniProt P54762) assay, sequence ANNEFYFQVCA , recorded phosphorylation enrichment = 0.656

Simply: RRIHRYRGHLW [VHL_Y112_S111R] , EPHB1 (UniProt P54762), phosphorylation enrichment = 0.507

Noted phosphorylation enrichment for TLQSMFGCDVG [HLA-B_Y123_Y123F] , tested on EPHB1 (UniProt P54762): 0.657

----------
# study.target: EPHB2 (UniProt P29323)
# Sequence (P29323 whole entry, looked up): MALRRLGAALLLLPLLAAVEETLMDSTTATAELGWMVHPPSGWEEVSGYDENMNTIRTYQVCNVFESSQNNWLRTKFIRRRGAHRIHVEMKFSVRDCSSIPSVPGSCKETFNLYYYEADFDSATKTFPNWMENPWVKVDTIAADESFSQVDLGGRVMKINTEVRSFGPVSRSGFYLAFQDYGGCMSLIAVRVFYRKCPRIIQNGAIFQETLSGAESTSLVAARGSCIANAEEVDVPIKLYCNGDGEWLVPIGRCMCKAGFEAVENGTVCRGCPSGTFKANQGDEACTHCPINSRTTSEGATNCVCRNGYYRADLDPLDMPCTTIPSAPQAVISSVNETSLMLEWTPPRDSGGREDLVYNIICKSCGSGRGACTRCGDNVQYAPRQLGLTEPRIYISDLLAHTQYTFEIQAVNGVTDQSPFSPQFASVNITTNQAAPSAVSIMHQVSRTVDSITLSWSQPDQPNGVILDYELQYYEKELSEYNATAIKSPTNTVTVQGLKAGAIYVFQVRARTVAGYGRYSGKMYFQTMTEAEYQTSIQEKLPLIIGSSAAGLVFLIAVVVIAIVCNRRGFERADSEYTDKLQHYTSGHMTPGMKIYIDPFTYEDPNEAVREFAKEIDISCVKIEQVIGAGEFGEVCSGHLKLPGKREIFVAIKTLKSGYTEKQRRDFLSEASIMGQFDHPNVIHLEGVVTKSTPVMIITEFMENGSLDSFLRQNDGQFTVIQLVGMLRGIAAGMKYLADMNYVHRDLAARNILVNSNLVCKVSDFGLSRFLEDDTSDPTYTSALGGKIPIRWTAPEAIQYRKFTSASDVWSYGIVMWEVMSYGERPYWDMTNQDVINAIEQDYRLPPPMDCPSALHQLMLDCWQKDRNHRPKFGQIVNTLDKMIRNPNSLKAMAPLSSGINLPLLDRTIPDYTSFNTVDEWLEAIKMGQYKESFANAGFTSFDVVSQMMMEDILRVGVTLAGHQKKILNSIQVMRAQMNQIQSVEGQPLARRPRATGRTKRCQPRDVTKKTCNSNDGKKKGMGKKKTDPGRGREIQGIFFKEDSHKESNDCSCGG
# experiment: phosphorylation enrichment, bacterial display (enrichment ratio); higher = better substrate or ligand; peptides without Tyr show the background
In this section we review reported phosphorylation enrichment values for a set of sequences.
Reply briefly: the number, and no unit.

Reference set, count: 6
INSERT INTO assay_data (entry_sequence, numeric_value) VALUES
  ('IDSTPYRQWYE [RPS8_Y109]', 0.501),
  ('FSCLPCGRLAF [SLC52A2_Y305_Y305C_YF]', 0.404),
  ('TEQDPSNNIVR [MMUT_Y364_Y364S]', 0.46),
  ('AGQKDYDRLRP [RAC3_Y64_E62K]', 0.543),
  ('FCIDHYLGKEM [G6PD_Y202_R198C_YF]', 0.505),
  ('PVDVAYRRGFF [PLEC_Y2967_YF]', 0.44);

For this sequence ( EMFNPCFGLFE [NEDD4L_Y679_Y679C_YF] ), measured phosphorylation enrichment is 0.687

Input SRIWVYNHFRC [BRCA2_Y2621_W2626C_YF] . Output phosphorylation enrichment: 0.672

The reported value for FDCGMYSHLQG [LGR4_Y848_YF] in terms of phosphorylation enrichment is 0.969
